test: Cytotoxicity against mouse NIH/3T3 cells assessed as cell killing effect after 72 hrs by MTT assay; assay type: cell-based; details: NIH3T3, 72 h
Would you mind telling me the reported IC50 of each entry?

Record IC50 for all entries; do not skip any.
1. C=C(C)[C@@H]1CC[C@]2(C(=O)NCCCNC(=S)Nc3ccc4c(c3)C(=O)OC43c4ccc(O)cc4Oc4cc(O)ccc43)CC[C@]3(C)[C@H](CC[C@@H]4[C@@]5(C)CC[C@H](O)C(C)(C)[C@@H]5CC[C@]43C)[C@@H]12
2. C=C(C)[C@@H]1CC[C@]2(C(=O)O)CC[C@]3(C)[C@H](CC[C@@H]4[C@@]5(C)CC[C@H](O)C(C)(C)[C@@H]5CC[C@]43C)[C@@H]12
3. C=C(C)[C@@H]1CC[C@]2(C(=O)NCCCOc3ccc(/C(=C4\C(=O)N(Cc5ccc(OC)cc5)c5ccccc54)c4ccc(O)cc4)cc3)CC[C@]3(C)[C@H](CC[C@@H]4[C@@]5(C)CC[C@H](O)C(C)(C)[C@@H]5CC[C@]43C)[C@@H]12
4. COc1ccc(CN2C(=O)C(=C(c3ccc(O)cc3)c3ccc(O)cc3)c3ccccc32)cc1
5. COc1cccc2c1C(=O)c1c(O)c3c(c(O)c1C2=O)C[C@@](O)(C(=O)CO)C[C@@H]3O[C@H]1C[C@H](N)[C@H](O)[C@H](C)O1

1: > 20 µM; 2: > 20 µM; 3: > 20 µM; 4: > 20 µM; 5: 7.21 µM

---

Would you mind telling me the reported pIC50 of each entry?
assay: Cytotoxicity against mouse B16F10 cells assessed as cell killing effect after 72 hrs by MTT assay; assay type: functional, cell-based; conditions: B16-F10, 72 h
Numbers only, as −log10 of the molar value.

C=C(C)[C@@H]1CC[C@]2(C(=O)NCCCNC(=S)Nc3ccc4c(c3)C(=O)OC43c4ccc(O)cc4Oc4cc(O)ccc43)CC[C@]3(C)[C@H](CC[C@@H]4[C@@]5(C)CC[C@H](O)C(C)(C)[C@@H]5CC[C@]43C)[C@@H]12; 4.70
C=C(C)[C@@H]1CC[C@]2(C(=O)NCCCOc3ccc(/C(=C4\C(=O)N(Cc5ccc(OC)cc5)c5ccccc54)c4ccc(O)cc4)cc3)CC[C@]3(C)[C@H](CC[C@@H]4[C@@]5(C)CC[C@H](O)C(C)(C)[C@@H]5CC[C@]43C)[C@@H]12; 5.64

Please report the recorded pIC50 for COc1cccc2c1C(=O)c1c(O)c3c(c(O)c1C2=O)C[C@@](O)(C(=O)CO)C[C@@H]3O[C@H]1C[C@H](N)[C@H](O)[C@H](C)O1 [DOXORUBICIN] .
6.18

---

assay: Cellular uptake in human PANC1 cells at 2 uM after 4 hrs by fluorescence microscopic analysis; assay type: ADME, cell-based; settings: panc-1, 4 h
result-type: Drug uptake

Examples with answers:
COc1ccc(CN2C(=O)C(=C(c3ccc(O)cc3)c3ccc(O)cc3)c3ccccc32)cc1; Active
COc1ccc(CN2C(=O)/C(=C(/c3ccc(O)cc3)c3ccc(OCCCN)cc3)c3ccccc32)cc1; Active
COc1cccc2c1C(=O)c1c(O)c3c(c(O)c1C2=O)C[C@@](O)(C(=O)CO)C[C@@H]3O[C@H]1C[C@H](N)[C@H](O)[C@H](C)O1; Active
C=C(C)[C@@H]1CC[C@]2(C(=O)NCCCOc3ccc(/C(=C4\C(=O)N(Cc5ccc(OC)cc5)c5ccccc54)c4ccc(O)cc4)cc3)CC[C@]3(C)[C@H](CC[C@@H]4[C@@]5(C)CC[C@H](O)C(C)(C)[C@@H]5CC[C@]43C)[C@@H]12; Active

Please report the recorded Drug uptake for C=C(C)[C@@H]1CC[C@]2(C(=O)NCCCNC(=S)Nc3ccc4c(c3)C(=O)OC43c4ccc(O)cc4Oc4cc(O)ccc43)CC[C@]3(C)[C@H](CC[C@@H]4[C@@]5(C)CC[C@H](O)C(C)(C)[C@@H]5CC[C@]43C)[C@@H]12 .
Active
